Hello, the source for this data is the supplement of paper PMC5998384, in case you need it.

Tested on: HeLa Kyoto
experiment-summary: thermal stability score vs G1/S (z-score of summed log2 fold changes over temperatures); higher = more thermally stable than in G1/S
run-conditions: cell cycle stage: mitosis
Entries and their thermal stability score

These recorded examples may help you get a feel for the data.
| record-sequence | data-value |
| --- | --- |
| MPSKSLVMEYLAHPSTLGLAVGVACGMCLGWSLRVCFGMLPKSKTSKTHTDTESEASILGDSGEYKMILVVRNDLKMGKGKVAAQCSHAAVSAYKQIQRRNPEMLKQWEYCGQPKVVVKAPDEETLIALLAHAKMLGLTVSLIQDAGRTQIAPGSQTVLGIGPGPADLIDKVTGHLKLY [PTRH2] | -2.48 |
| MLRAGWLRGAAALALLLAARVVAAFEPITVGLAIGAASAITGYLSYNDIYCRFAECCREERPLNASALKLDLEEKLFGQHLATEVIFKALTGFRNNKNPKKPLTLSLHGWAGTGKNFVSQIVAENLHPKGLKSNFVHLFVSTLHFPHEQKIKLYQDQLQKWIRGNVSACANSVFIFDEMDKLHPGIIDAIKPFLDYYEQVDGVSYRKAIFIFLSNAGGDLITKTALDFWRAGRKREDIQLKDLEPVLSVGVFNNKHSGLWHSGLIDKNLIDYFIPFLPLEYRHVKMCVRAEMRARGSAIDEDIVTRVAEEMTFFPRDEKIYSDKGCKTVQSRLDFH [TOR1B] | 5.78 |

# input for lookup
QUERY: Under HeLa Kyoto, report thermal stability score for MDSSAVITQISKEEARGPLRGKGDQKSAASQKPRSRGILHSLFCCVCRDDGEALPAHSGAPLLVEENGAIPKQTPVQYLLPEAKAQDSDKICVVIDLDETLVHSSFKPVNNADFIIPVEIDGVVHQVYVLKRPHVDEFLQRMGELFECVLFTASLAKYADPVADLLDKWGAFRARLFRESCVFHRGNYVKDLSRLGRDLRRVLILDNSPASYVFHPDNAVPVASWFDNMSDTELHDLLPFFEQLSRVDDVYSVLRQPRPGS [CTDSP1]
RESULT: 0.982

---

Tested on: HeLa Kyoto
experiment-summary: thermal stability score vs G1/S (z-score of summed log2 fold changes over temperatures); higher = more thermally stable than in G1/S
run-conditions: cell cycle stage: mitosis
outcome-measure: thermal stability score
Form field (numeric): enter value without unit.

| record-sequence | test-system | outcome-measure | data-value |
| --- | --- | --- | --- |
| MSGFENLNTDFYQTSYSIDDQSQQSYDYGGSGGPYSKQYAGYDYSQQGRFVPPDMMQPQQPYTGQIYQPTQAYTPASPQPFYGNNFEDEPPLLEELGINFDHIWQKTLTVLHPLKVADGSIMNETDLAGPMVFCLAFGATLLLAGKIQFGYVYGISAIGCLGMFCLLNLMSMTGVSFGCVASVLGYCLLPMILLSSFAVIFSLQGMVGIILTAGIIGWCSFSASKIFISALAMEGQQLLVAYPCALLYGVFALISVF [YIPF5] | HeLa Kyoto | thermal stability score | -0.361 |
| MKPGFSPRGGGFGGRGGFGDRGGRGGRGGFGGGRGRGGGFRGRGRGGGGGGGGGGGGGRGGGGFHSGGNRGRGRGGKRGNQSGKNVMVEPHRHEGVFICRGKEDALVTKNLVPGESVYGEKRVSISEGDDKIEYRAWNPFRSKLAAAILGGVDQIHIKPGAKVLYLGAASGTTVSHVSDIVGPDGLVYAVEFSHRSGRDLINLAKKRTNIIPVIEDARHPHKYRMLIAMVDVIFADVAQPDQTRIVALNAHTFLRNGGHFVISIKANCIDSTASAEAVFASEVKKMQQENMKPQEQLTLEPYERDHAVVVGVYRPPPKVKN [FBL] | HeLa Kyoto | thermal stability score | -3.39 |

QUERY: Report thermal stability score from HeLa Kyoto testing of MGVEGCTKCIKYLLFVFNFVFWLAGGVILGVALWLRHDPQTTNLLYLELGDKPAPNTFYVGIYILIAVGAVMMFVGFLGCYGAIQESQCLLGTFFTCLVILFACEVAAGIWGFVNKDQIAKDVKQFYDQALQQAVVDDDANNAKAVVKTFHETLDCCGSSTLTALTTSVLKNNLCPSGSNIISNLFKEDCHQKIDDLFSGKLYLIGIAAIVVAVIMIFEMILSMVLCCGIRNSSVY [CD81]
RESULT: -0.69

---

Test system: HeLa Kyoto
experiment-summary: melting temperature (median over replicates), in situ; higher = more thermally stable
run-conditions: cell cycle stage: G1/S
Everything with melting temperature lower than 50 °C is no (0); everything else, including exactly 50 °C, is yes (1).

See these solved cases before continuing.
| record-sequence | group-label |
| --- | --- |
| MPYQYPALTPEQKKELSDIAHRIVAPGKGILAADESTGSIAKRLQSIGTENTEENRRFYRQLLLTADDRVNPCIGGVILFHETLYQKADDGRPFPQVIKSKGGVVGIKVDKGVVPLAGTNGETTTQGLDGLSERCAQYKKDGADFAKWRCVLKIGEHTPSALAIMENANVLARYASICQQNGIVPIVEPEILPDGDHDLKRCQYVTEKVLAAVYKALSDHHIYLEGTLLKPNMVTPGHACTQKFSHEEIAMATVTALRRTVPPAVTGITFLSGGQSEEEASINLNAINKCPLLKPWALTFSYGRALQASALKAWGGKKENLKAAQEEYVKRALANSLACQGKYTPSGQAGAAASESLFVSNHAY [ALDOA] | yes (1) |
| MEKTLETVPLERKKREKEQFRKLFIGGLSFETTEESLRNYYEQWGKLTDCVVMRDPASKRSRGFGFVTFSSMAEVDAAMAARPHSIDGRVVEPKRAVAREESGKPGAHVTVKKLFVGGIKEDTEEHHLRDYFEEYGKIDTIEIITDRQSGKKRGFGFVTFDDHDPVDKIVLQKYHTINGHNAEVRKALSRQEMQEVQSSRSGRGGNFGFGDSRGGGGNFGPGPGSNFRGGSDGYGSGRGFGDGYNGYGGGPGGGNFGGSPGYGGGRGGYGGGGPGYGNQGGGYGGGYDNYGGGNYGSGNYNDFGNYNQQPSNYGPMKSGNFGGSRNMGGPYGGGNYGPGGSGGSGGYGGRSRY [HNRNPA2B1] | no (0) |

QUERY: Could you verify whether the entry MFLVNSFLKGGGGGGGGGGGLGGGLGNVLGGLISGAGGGGGGGGGGGGGGGGGGGGTAMRILGGVISAISEAAAQYNPEPPPPRTHYSNIEANESEEVRQFRRLFAQLAGDDMEVSATELMNILNKVVTRHPDLKTDGFGIDTCRSMVAVMDSDTTGKLGFEEFKYLWNNIKRWQAIYKQFDTDRSGTICSSELPGAFEAAGFHLNEHLYNMIIRRYSDESGNMDFDNFISCLVRLDAMFRAFKSLDKDGTGQIQVNIQEWLQLTMYS [CAPNS1] shows melting temperature of no less than 50 °C?
RESULT: yes (1)

QUERY: Can MASLEVSRSPRRSRRELEVRSPRQNKYSVLLPTYNERENLPLIVWLLVKSFSESGINYEIIIIDDGSPDGTRDVAEQLEKIYGSDRILLRPREKKLGLGTAYIHGMKHATGNYIIIMDADLSHHPKFIPEFIRKQKEGNFDIVSGTRYKGNGGVYGWDLKRKIISRGANFLTQILLRPGASDLTGSFRLYRKEVLEKLIEKCVSKGYVFQMEMIVRARQLNYTIGEVPISFVDRVYGESKLGGNEIVSFLKGLLTLFATT [DPM1] be said to have melting temperature at or above 50 °C?
RESULT: yes (1)

QUERY: Please check the record MPKHEFSVDMTCGGCAEAVSRVLNKLGGVKYDIDLPNKKVCIESEHSMDTLLATLKKTGKTVSYLGLE [ATOX1] and state if its melting temperature is at or above 50 °C.
RESULT: yes (1)

QUERY: Does the sequence MAMNYNAKDEVDGGPPCAPGGTAKTRRPDNTAFKQQRLPAWQPILTAGTVLPIFFIIGLIFIPIGIGIFVTSNNIREIEIDYTGTEPSSPCNKCLSPDVTPCFCTINFTLEKSFEGNVFMYYGLSNFYQNHRRYVKSRDDSQLNGDSSALLNPSKECEPYRRNEDKPIAPCGAIANSMFNDTLELFLIGNDSYPIPIALKKKGIAWWTDKNVKFRNPPGGDNLEERFKGTTKPVNWLKPVYMLDSDPDNNGFINEDFIVWMRTAALPTFRKLYRLIERKSDLHPTLPAGRYSLNVTYNYPVHYFDGRKRMILSTISWMGGKNPFLGIAYIAVGSISFLLGVVLLVINHKYRNSSNTADITI [TMEM30A] have recorded melting temperature that is 50 °C or more?
RESULT: yes (1)

---

System: HeLa Kyoto
experiment-summary: solubility change mitosis vs G1/S (difference of NP-40 vs SDS log2 ratios) (log2 ratio difference); higher = more soluble in mitosis
outcome-measure: solubility change mitosis (log2)

| record-sequence | solubility change mitosis (log2) |
| --- | --- |
| MAGVGAGPLRAMGRQALLLLALCATGAQGLYFHIGETEKRCFIEEIPDETMVIGNYRTQMWDKQKEVFLPSTPGLGMHVEVKDPDGKVVLSRQYGSEGRFTFTSHTPGDHQICLHSNSTRMALFAGGKLRVHLDIQVGEHANNYPEIAAKDKLTELQLRARQLLDQVEQIQKEQDYQRYREERFRLTSESTNQRVLWWSIAQTVILILTGIWQMRHLKSFFEAKKLV [TMED4] | -0.0477 |

QUERY: Report solubility change mitosis (log2) under test system HeLa Kyoto for MAALKSWLSRSVTSFFRYRQCLCVPVVANFKKRCFSELIRPWHKTVTIGFGVTLCAVPIAQKSEPHSLSSEALMRRAVSLVTDSTSTFLSQTTYALIEAITEYTKAVYTLTSLYRQYTSLLGKMNSEEEDEVWQVIIGARAEMTSKHQEYLKLETTWMTAVGLSEMAAEAAYQTGADQASITARNHIQLVKLQVEEVHQLSRKAETKLAEAQIEELRQKTQEEGEERAESEQEAYLRED [DIABLO] .
RESULT: 0.345
